# study.system: cyclophilin D (Homo sapiens, UniProt P30405)
# Sequence (P30405 30-207): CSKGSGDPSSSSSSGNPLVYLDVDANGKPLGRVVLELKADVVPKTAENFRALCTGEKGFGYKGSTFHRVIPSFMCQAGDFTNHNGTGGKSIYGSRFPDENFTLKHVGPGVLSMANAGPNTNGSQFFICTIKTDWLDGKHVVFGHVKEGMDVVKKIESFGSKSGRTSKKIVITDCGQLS
# test.name: Rotamase activity (method of Kofron et al)
# Type: biochemical
# measurement.context: 100 μM
property.measured: Rotamase activity % Control (% Control)

molecule | Rotamase activity % Control (% Control)
CC(C)C[C@H](NC(=O)OCc1ccccc1)C(=O)OC1=CC(=O)CC(C)(C)C1 | 78
CC1(C)CC(=O)CC(=O)C1Cc1ccccc1 (centres unmarked) | 99
CC(C)[C@H](NC(=O)OC(C)(C)C)C(=O)OC1=CC(=O)CC(C)(C)C1 | 77.5
CC(C)C(NC(=O)OCc1ccccc1)C(O)=C1C(=O)CC(C)(C)CC1=O (centres unmarked) | 102.5
COC(=O)[C@@H](NC1=CC(=O)CC(C)(C)C1)C(C)C | 102
CC1(C)CC(=O)C=C(N)C1 | 106.5
CC1(C)CC(=O)C=C(OC(=O)[C@H](Cc2ccccc2)NC(=O)OCc2ccccc2)C1 | 72.5
COC(=O)[C@@H](NC(=O)OCc1ccccc1)C(C)C | 96
COC(=O)[C@H](Cc1ccccc1)NC(=C1C(=O)CC(C)(C)CC1=O)C(NC(=O)OCc1ccccc1)C(C)C (some centres unmarked) | 100
CC(C)[C@H](NC(=O)OCc1ccccc1)C(=O)OC1=CC(=O)CC(C)(C)C1 | 80
CC(C)[C@H](NC(=O)OCc1ccccc1)C(=O)OC1=CC(=O)C(C)C(C)(C)C1 (some centres unmarked) | 84.5
